Target: RPS12 (UniProt P25398)
Assay: EC50 of free RNA motif oligo competing protein binding to immobilised probe
QUANTITY: EC50 (nM)
Please state the figure in nM; there is no need to write the unit.

Per the reported RPS12 (UniProt P25398) data, CUGUCCU has EC50 of 392

###

Target: RBMS3 (UniProt Q6XE24)
Sequence: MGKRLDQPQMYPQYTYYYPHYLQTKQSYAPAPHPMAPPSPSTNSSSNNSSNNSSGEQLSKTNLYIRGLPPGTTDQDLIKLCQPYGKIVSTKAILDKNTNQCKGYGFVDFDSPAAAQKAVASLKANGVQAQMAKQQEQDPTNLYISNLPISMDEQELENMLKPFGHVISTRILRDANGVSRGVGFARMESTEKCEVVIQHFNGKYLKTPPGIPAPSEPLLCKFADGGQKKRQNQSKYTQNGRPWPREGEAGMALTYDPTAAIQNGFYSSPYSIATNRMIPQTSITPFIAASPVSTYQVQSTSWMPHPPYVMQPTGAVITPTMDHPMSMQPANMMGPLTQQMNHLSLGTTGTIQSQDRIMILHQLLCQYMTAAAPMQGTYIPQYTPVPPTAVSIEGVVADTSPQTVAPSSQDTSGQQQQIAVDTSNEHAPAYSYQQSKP
Test: Kd (EC50 corrected by depletion factor)
List of pKd values.
# pKd is unitless: minus log10 of the molar concentration; print number only

SEQUENCE CODE: AAUAAA
pKd: 6.82

Next sequence, pKd to be filled in.
Reported pKd for UAUUUAU was 7.01

###

Molecular target: MSI1 (UniProt O43347)
Sequence (O43347 whole entry): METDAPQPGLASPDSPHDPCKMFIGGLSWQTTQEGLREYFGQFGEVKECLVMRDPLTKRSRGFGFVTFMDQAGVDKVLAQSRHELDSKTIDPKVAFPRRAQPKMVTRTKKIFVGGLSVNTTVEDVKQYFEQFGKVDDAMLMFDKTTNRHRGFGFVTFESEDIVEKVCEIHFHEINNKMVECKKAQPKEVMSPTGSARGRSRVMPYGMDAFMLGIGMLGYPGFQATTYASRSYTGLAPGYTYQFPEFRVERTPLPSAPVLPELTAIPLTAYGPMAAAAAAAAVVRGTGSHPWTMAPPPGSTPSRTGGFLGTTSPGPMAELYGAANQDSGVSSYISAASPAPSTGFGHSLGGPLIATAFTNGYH
Experiment: Kd (EC50 corrected by depletion factor)
QUANTITY: Kd (nM)
Please state the figure in nM; there is no need to write the unit.

SEQUENCE CODE: UAUUUAU
MEAS VALUE: 373

Next sequence, Kd to be filled in.
Per the reported MSI1 (UniProt O43347) data, AAUAAA has Kd of 3110

###

Molecular target: TOE1 (UniProt Q96GM8)
Experiment: EC50 of free RNA motif oligo competing protein binding to immobilised probe
QUANTITY: EC50 (nM)
Please state the figure in nM; there is no need to write the unit.

SEQUENCE CODE: AAUAAA
EC50 / nM: 2110

Next sequence, EC50 to be filled in.
Reported EC50 for UAUUUAU was 1420

###

List of EC50 values.
Target: PABPC4 (UniProt Q13310)
Sequence (Q13310 whole entry): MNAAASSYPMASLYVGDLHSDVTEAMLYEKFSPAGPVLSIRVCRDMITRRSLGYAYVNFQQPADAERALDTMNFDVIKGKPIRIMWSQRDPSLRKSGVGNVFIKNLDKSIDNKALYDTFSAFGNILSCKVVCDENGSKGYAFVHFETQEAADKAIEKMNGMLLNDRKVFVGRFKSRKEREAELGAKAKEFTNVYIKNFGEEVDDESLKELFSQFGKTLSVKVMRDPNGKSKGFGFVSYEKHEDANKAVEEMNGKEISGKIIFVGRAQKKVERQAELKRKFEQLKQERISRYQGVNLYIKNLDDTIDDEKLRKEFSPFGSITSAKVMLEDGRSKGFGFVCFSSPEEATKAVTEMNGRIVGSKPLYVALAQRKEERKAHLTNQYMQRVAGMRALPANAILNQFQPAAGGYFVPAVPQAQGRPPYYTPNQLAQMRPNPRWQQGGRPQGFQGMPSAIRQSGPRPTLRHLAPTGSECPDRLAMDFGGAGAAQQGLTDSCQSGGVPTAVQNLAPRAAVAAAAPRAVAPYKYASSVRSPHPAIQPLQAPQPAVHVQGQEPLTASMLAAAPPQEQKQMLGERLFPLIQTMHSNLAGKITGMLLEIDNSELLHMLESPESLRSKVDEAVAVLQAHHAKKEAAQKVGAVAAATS
Assay: EC50 of free RNA motif oligo competing protein binding to immobilised probe
Please state the figure in µM; there is no need to write the unit.

SEQUENCE CODE: UAUUUAU
QUANTITY: EC50
MEAS VALUE: 13.6

Per the reported PABPC4 (UniProt Q13310) data, AAUAAA has EC50 of 4.29

###

Target: MSI2 (UniProt Q96DH6)
Sequence (Q96DH6 whole entry): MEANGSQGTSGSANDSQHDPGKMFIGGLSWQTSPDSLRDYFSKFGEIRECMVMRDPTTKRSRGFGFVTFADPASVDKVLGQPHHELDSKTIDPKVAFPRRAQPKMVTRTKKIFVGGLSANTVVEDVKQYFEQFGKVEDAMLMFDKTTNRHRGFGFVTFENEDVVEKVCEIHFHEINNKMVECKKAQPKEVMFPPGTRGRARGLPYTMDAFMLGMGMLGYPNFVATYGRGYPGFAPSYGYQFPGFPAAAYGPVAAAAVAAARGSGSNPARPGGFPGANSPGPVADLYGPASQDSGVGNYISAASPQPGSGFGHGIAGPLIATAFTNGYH
Assay: EC50 of free RNA motif oligo competing protein binding to immobilised probe
QUANTITY: EC50 (nM)
Please state the figure in nM; there is no need to write the unit.

SEQUENCE CODE: AAUAAA
MEAS VALUE: 826

Next sequence, EC50 to be filled in.
Reported EC50 for UAUUUAU was 803

###

Target: CXorf57 (UniProt Q6NSI4)
Sequence (Q6NSI4 whole entry): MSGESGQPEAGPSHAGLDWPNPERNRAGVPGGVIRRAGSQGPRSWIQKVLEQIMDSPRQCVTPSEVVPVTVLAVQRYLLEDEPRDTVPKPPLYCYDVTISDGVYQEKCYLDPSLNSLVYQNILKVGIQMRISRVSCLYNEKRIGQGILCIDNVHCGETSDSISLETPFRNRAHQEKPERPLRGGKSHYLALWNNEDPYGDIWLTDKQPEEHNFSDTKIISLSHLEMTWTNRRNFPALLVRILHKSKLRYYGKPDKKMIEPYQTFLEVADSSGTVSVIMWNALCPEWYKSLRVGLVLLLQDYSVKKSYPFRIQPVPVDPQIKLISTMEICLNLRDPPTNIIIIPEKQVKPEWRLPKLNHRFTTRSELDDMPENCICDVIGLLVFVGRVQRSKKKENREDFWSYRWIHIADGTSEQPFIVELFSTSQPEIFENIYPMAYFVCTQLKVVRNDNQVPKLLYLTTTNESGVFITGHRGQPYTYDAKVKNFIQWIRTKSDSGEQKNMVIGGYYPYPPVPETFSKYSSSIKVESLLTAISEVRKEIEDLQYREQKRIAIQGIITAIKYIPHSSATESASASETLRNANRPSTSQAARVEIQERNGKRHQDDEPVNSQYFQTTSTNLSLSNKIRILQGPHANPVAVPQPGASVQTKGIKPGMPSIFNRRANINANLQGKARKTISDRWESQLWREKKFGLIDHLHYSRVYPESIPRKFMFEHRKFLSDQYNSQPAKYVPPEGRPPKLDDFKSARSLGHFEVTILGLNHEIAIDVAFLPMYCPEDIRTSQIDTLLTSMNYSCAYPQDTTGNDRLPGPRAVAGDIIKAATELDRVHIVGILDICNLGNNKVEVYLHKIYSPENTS
Assay: Kd (EC50 corrected by depletion factor)
QUANTITY: pKd
# pKd is unitless: minus log10 of the molar concentration; print number only

Reported pKd for AAUAAA was 5.98

###

Biological target: TRIM56 (UniProt Q9BRZ2)
Sequence: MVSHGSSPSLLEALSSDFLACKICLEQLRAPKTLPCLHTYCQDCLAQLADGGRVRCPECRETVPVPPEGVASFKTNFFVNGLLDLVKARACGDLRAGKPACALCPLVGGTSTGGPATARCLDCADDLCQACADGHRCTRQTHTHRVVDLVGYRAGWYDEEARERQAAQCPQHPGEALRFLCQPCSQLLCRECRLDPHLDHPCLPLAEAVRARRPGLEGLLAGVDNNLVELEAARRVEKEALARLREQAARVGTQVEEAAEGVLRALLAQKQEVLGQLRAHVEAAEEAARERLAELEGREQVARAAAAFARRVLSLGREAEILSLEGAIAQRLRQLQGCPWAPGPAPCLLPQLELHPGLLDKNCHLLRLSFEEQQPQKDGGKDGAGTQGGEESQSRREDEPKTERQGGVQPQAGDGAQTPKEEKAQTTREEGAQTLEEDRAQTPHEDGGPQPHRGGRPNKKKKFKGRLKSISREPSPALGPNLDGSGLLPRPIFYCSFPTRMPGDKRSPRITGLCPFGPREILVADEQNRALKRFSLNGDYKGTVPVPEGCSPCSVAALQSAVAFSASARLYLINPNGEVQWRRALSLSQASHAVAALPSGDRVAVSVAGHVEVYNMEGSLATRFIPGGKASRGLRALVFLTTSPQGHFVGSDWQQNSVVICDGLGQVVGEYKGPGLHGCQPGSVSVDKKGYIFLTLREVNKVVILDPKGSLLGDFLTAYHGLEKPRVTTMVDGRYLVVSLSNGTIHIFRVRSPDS
Test: Kd (EC50 corrected by depletion factor)
QUANTITY: Kd (nM)
Please state the figure in nM; there is no need to write the unit.

Reported Kd for UAUUUAU was 2880

###

Biological target: PABPC4 (UniProt Q13310)
Experiment: Kd (EC50 corrected by depletion factor)
List of pKd values.
# pKd is unitless: minus log10 of the molar concentration; print number only

Reported pKd for AAUAAA was 5.82

Reported pKd for UAUUUAU was 5.11

###

Target: SF3B2 (UniProt Q13435)
Sequence: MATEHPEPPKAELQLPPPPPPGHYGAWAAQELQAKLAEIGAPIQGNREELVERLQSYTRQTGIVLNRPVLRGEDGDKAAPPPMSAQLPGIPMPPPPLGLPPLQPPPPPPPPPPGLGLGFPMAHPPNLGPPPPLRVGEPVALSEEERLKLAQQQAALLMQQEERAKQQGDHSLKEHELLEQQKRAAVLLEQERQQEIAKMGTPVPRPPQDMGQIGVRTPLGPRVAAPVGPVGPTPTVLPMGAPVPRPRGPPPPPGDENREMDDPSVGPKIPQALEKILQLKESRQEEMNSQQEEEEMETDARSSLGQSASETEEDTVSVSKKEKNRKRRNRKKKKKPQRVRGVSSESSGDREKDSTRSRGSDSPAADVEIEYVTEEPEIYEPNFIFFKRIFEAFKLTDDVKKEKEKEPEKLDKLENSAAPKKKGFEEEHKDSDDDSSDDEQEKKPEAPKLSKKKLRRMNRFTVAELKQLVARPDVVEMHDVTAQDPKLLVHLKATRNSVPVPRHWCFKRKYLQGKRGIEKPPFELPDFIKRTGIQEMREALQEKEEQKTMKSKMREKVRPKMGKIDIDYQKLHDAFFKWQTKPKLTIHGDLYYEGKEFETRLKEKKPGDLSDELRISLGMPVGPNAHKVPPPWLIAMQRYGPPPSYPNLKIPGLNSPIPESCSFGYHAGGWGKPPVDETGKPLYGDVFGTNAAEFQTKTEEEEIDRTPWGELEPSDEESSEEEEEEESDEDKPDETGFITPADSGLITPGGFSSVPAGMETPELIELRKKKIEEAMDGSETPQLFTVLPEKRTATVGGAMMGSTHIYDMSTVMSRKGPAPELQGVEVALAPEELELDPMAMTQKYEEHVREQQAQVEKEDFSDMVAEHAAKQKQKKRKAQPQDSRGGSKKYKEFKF
Assay: Kd (EC50 corrected by depletion factor)
QUANTITY: Kd (nM)
Please state the figure in nM; there is no need to write the unit.

Reported Kd for AAUAAA was 719

###

Target: LIN28B (UniProt Q6ZN17)
Sequence: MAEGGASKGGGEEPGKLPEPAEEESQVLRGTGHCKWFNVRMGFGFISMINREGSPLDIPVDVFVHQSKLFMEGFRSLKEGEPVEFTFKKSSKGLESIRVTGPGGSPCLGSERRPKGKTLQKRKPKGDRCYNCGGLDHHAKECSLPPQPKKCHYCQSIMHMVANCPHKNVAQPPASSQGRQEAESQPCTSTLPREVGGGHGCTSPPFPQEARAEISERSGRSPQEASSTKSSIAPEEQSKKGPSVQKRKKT
Assay: Kd (EC50 corrected by depletion factor)
QUANTITY: Kd (µM)
Please state the figure in µM; there is no need to write the unit.

SEQUENCE CODE: AAUAAA
MEASUREMENT UNIT: µM
Kd: 0.61
//
SEQUENCE CODE: UAUUUAU
MEASUREMENT UNIT: µM
Kd: 1.1

Next sequence, Kd to be filled in.
Reported Kd for CUGUCCU was 1.22

###

Molecular target: ZGPAT (UniProt Q8N5A5)
Sequence: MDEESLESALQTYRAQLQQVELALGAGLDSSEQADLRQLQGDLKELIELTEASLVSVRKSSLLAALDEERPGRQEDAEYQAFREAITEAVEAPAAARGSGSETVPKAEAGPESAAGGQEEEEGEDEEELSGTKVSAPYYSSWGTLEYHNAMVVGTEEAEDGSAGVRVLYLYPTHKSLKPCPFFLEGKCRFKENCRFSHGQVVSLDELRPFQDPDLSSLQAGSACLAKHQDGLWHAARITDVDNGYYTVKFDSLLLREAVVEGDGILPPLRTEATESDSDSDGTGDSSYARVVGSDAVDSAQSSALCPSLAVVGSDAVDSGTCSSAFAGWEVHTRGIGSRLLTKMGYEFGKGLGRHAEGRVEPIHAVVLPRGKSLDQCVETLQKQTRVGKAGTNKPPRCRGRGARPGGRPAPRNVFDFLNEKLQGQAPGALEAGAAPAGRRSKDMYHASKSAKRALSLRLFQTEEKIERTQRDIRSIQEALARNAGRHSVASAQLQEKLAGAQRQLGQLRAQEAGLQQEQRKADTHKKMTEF
Assay: EC50 of free RNA motif oligo competing protein binding to immobilised probe
QUANTITY: pEC50
# pEC50 is unitless: minus log10 of the molar concentration; print number only

Reported pEC50 for AAUAAA was 5.02
